Source: patent US6706663B2

System: CYPSE (Cyperus serotinus)
method: Flooded paddy, preemergence weed control
Assay type: in vivo, Rottb.
experimental context: rate 0.0320 kg/ha, rated 3-4 weeks after treatment, 0-9 rating scale
# strict inequality: herbicidal rating, CYPSE < 4 yields MET, everything else yields NOT MET

Query: Check if herbicidal rating, CYPSE falls below 4 for Cn1c(C(F)(F)F)cc(=O)n(-c2ccc3snc(C4OCCCO4)c3c2)c1=O [Compound 28] .
Result: NOT MET

Query: Dear reviewer, please state whether C[C@@H]1C[C@H](C)OC(c2nsc3ccc(-n4c(=O)cc(C(F)(F)F)n(C)c4=O)cc23)O1 (stereo partly shown) [Compound 50] has herbicidal rating, CYPSE strictly beneath 4.
Result: NOT MET

Query: # strict comparison: is reported herbicidal rating, CYPSE < 4? input = Cn1c(C(F)(F)F)cc(=O)n(-c2ccc3snc(-c4ccsc4)c3c2)c1=O [Compound 1]
Result: MET

Query: Field: below-cutoff. Rule: recorded herbicidal rating, CYPSE strictly less than 4. Subject: COC(=O)COc1ccsc1-c1nsc2ccc(-n3c(=O)cc(C(F)(F)F)n(C)c3=O)cc12 [Compound 22]
Result: MET

Query: Lab note: confirm whether the reported herbicidal rating, CYPSE for this compound is below 4, equality not counting. compound: Cc1ccc(-c2nsc3ccc(-n4c(=O)cc(C(F)(F)F)n(C)c4=O)cc23)s1 [Compound 21]
Result: NOT MET

Query: Confirm or reject: herbicidal rating, CYPSE of CCOc1cc(OCC)nc(-c2nsc3ccc(-n4c(=O)cc(C(F)(F)F)n(C)c4=O)cc23)n1 [Compound 43] lies strictly below 4
Result: MET

Query: Hello, is herbicidal rating, CYPSE of the following compound strictly smaller than 4? Cc1cscc1-c1nsc2ccc(-n3c(=O)cc(C(F)(F)F)n(C)c3=O)cc12 [Compound 26]
Result: MET

Query: In plain terms, does Cn1c(C(F)(F)F)cc(=O)n(-c2ccc3snc(C4OCC(C)(C)CO4)c3c2)c1=O [Compound 36] come in under 4 for herbicidal rating, CYPSE?
Result: NOT MET

Query: Take the compound Cn1c(C(F)(F)F)cc(=O)n(-c2ccc3snc(C4SCCS4)c3c2)c1=O [Compound 24] and say whether its herbicidal rating, CYPSE is less than 4.
Result: MET

Query: Is 4 strictly greater than the compound's reported herbicidal rating, CYPSE? compound: Cn1c(C(F)(F)F)cc(=O)n(-c2cc3c(C4OCCO4)nsc3cc2F)c1=O [Compound 61]
Result: NOT MET

Query: Lab note: herbicidal rating, CYPSE threshold 4. Does this compound come in strictly under it? Cn1c(C(F)(F)F)cc(=O)n(-c2ccc3snc(-c4sccc4Cl)c3c2)c1=O [Compound 52]
Result: NOT MET

Query: Report whether reported herbicidal rating, CYPSE is lower than 4 (strictly) for Cn1c(C(F)(F)F)cc(=O)n(-c2ccc3snc(-c4nccs4)c3c2)c1=O [Compound 53]
Result: MET

Query: Does this compound meet the criterion herbicidal rating, CYPSE < 4? C[C@@H]1OC(c2nsc3ccc(-n4c(=O)cc(C(F)(F)F)n(C)c4=O)cc23)O[C@@H]1C (stereo partly shown) [Compound 47]
Result: NOT MET

---

Tested on: CHEAL (Chenopodium album)
method: Postemergence herbicidal evaluation
Format: in vivo, L.
experimental context: postemergence, rate 0.0320 kg/ha
Consider the following compounds; for each one, report its CHEAL herbicidal rating.
Form: value (number only, do not type unit).

Form: compound = Cn1c(C(F)(F)F)cc(=O)n(-c2ccc3snc(-c4sccc4CBr)c3c2)c1=O [Compound 80] ; CHEAL herbicidal rating = 9.0

Memo: CC1CC(C)(C)OC(c2nsc3ccc(-n4c(=O)cc(C(F)(F)F)n(C)c4=O)cc23)O1 (stereo not drawn) [Compound 55] , reported CHEAL herbicidal rating: 5.0

Recorded CHEAL herbicidal rating (compound C[C@@H]1C[C@H](C)OC(c2nsc3cc(F)c(-n4c(=O)cc(C(F)(F)F)n(C)c4=O)cc23)O1 (stereo partly drawn) [Compound 67] ): 9.0

Quick note, CHEAL herbicidal rating for Cn1c(C(F)(F)F)cc(=O)n(-c2ccc3snc(-c4nccs4)c3c2)c1=O [Compound 53] landed at 4.5

# CHEAL herbicidal rating of Cn1c(C(F)(F)F)cc(=O)n(-c2cc3c(C4OCCO4)nsc3cc2F)c1=O [Compound 61] = 9.0

The reported CHEAL herbicidal rating of the compound CSCC1COC(c2nsc3ccc(-n4c(=O)cc(C(F)(F)F)n(C)c4=O)cc23)O1 (stereo not drawn) [Compound 84] was 9.0

CHEAL herbicidal rating reported for this compound Cc1cnn(-c2nsc3ccc(-n4c(=O)cc(C(F)(F)F)n(C)c4=O)cc23)c1 [Compound 59] : 8.0

Please fill in: CHEAL herbicidal rating reported for C[C@@H]1C[C@H](C)OC(c2nsc3ccc(-n4c(=O)cc(C(F)(F)F)n(C)c4=O)cc23)O1 (stereo partly drawn) [Compound 51] = 7.0

Documented CHEAL herbicidal rating of Cn1c(C(F)(F)F)cc(=O)n(-c2ccc3snc(C4=NCCO4)c3c2)c1=O [Compound 75] : 7.0

Given item Cn1c(C(F)(F)F)cc(=O)n(-c2ccc3snc(-c4nc5ccccc5[nH]c4=O)c3c2)c1=O [Compound 90] , the value recorded as its CHEAL herbicidal rating is 9.0

So, C=CC1COC(c2nsc3ccc(-n4c(=O)cc(C(F)(F)F)n(C)c4=O)cc23)O1 (stereo not drawn) [Compound 76] ? Its CHEAL herbicidal rating was 9.0

Lab note: C[C@@H]1OC(c2nsc3cc(F)c(-n4c(=O)cc(C(F)(F)F)n(C)c4=O)cc23)O[C@@H]1C (stereo partly drawn) [Compound 66] gave CHEAL herbicidal rating of 9.0

Sure, the documented CHEAL herbicidal rating for Cn1c(C(F)(F)F)cc(=O)n(-c2ccc3snc(C4OCC5(CO4)CO5)c3c2)c1=O (stereo not drawn) [Compound 70] is 9.0

Reported CHEAL herbicidal rating ( CC(C)C1COC(c2nsc3ccc(-n4c(=O)cc(C(F)(F)F)n(C)c4=O)cc23)=N1 (stereo not drawn) [Compound 74] ) = 9.0

Value of measured CHEAL herbicidal rating for the entry Cc1sccc1-c1nsc2ccc(-n3c(=O)cc(C(F)(F)F)n(C)c3=O)cc12 [Compound 68] : 9.0

---

Test system: CHEAL (Chenopodium album)
method: Preemergence herbicidal evaluation
Format: in vivo, L.
experimental context: Rate 0.0620 kg/ha; rated 4-5 weeks after treatment
readout type: Preemergence herbicidal rating CHEAL
Respond numerically, and do not add a unit to the figure.

get_value(item= `Cc1nn(-c2nsc3ccc(-n4c(=O)cc(C(F)(F)F)n(C)c4=O)cc23)c(C)c1C` , readout=Preemergence herbicidal rating CHEAL) returns 0.0

Note to self: Preemergence herbicidal rating CHEAL recorded for `Cn1c(C(F)(F)F)cc(=O)n(-c2ccc3snc(C4(C)OCCO4)c3c2)c1=O` was 9.0

Entry CCCC1COC(c2nsc3ccc(-n4c(=O)cc(C(F)(F)F)n(C)c4=O)cc23)O1 (stereo not drawn) — recorded Preemergence herbicidal rating CHEAL = 9.0

Record summary for `Cc1sccc1-c1nsc2ccc(-n3c(=O)cc(C(F)(F)F)n(C)c3=O)cc12` : reported Preemergence herbicidal rating CHEAL = 9.0

Sure, the documented Preemergence herbicidal rating CHEAL for C[C@@H]1C[C@H](C)OC(c2nsc3ccc(-n4c(=O)cc(C(F)(F)F)n(C)c4=O)cc23)O1 (stereo partly drawn) is 9.0

Data point: Cn1c(C(F)(F)F)cc(=O)n(-c2ccc3snc(C4OCC(CCl)O4)c3c2)c1=O (stereo not drawn) ; Preemergence herbicidal rating CHEAL = 9.0

---

Tested on: GLXMAW (Soybean, Williams)
method: Postemergence herbicidal evaluation
Type: in vivo, Glycine max, (L.) Merr. cv Williams
experimental context: postemergence, rate 0.0320 kg/ha
Kindly state GLXMAW herbicidal rating for each of the entries shown.
Please give only the number in your answer, with no unit.

GLXMAW (Soybean, Williams) GLXMAW herbicidal rating of CC(C)C1COC(c2nsc3ccc(-n4c(=O)cc(C(F)(F)F)n(C)c4=O)cc23)=N1 (stereo not drawn) is 5.5

Record `Cn1c(C(F)(F)F)cc(=O)n(-c2cc3c(C4OCCCO4)nsc3cc2F)c1=O` has GLXMAW (Soybean, Williams) GLXMAW herbicidal rating equal to 9.0

Test item `Cc1sccc1-c1nsc2ccc(-n3c(=O)cc(C(F)(F)F)n(C)c3=O)cc12` ; GLXMAW (Soybean, Williams); reported GLXMAW herbicidal rating was 6.5

Reading of GLXMAW herbicidal rating for COCC1COC(c2nsc3ccc(-n4c(=O)cc(C(F)(F)F)n(C)c4=O)cc23)O1 (stereo not drawn) with GLXMAW (Soybean, Williams): 7.0

Here `Cn1c(C(F)(F)F)cc(=O)n(-c2ccc3snc(-c4ccoc4)c3c2)c1=O` was tested on GLXMAW (Soybean, Williams), and its GLXMAW herbicidal rating came to 4.0

# value of GLXMAW herbicidal rating, GLXMAW (Soybean, Williams), item C[C@@H]1C[C@H](C)OC(c2nsc3ccc(-n4c(=O)cc(C(F)(F)F)n(C)c4=O)cc23)O1 (stereo partly drawn) = 7.5

Item `Cc1cnn(-c2nsc3ccc(-n4c(=O)cc(C(F)(F)F)n(C)c4=O)cc23)c1` ; assay system GLXMAW (Soybean, Williams); GLXMAW herbicidal rating reported as 7.5

Reading of GLXMAW herbicidal rating for Cn1c(C(F)(F)F)cc(=O)n(-c2ccc3snc(C4OCC(CCl)O4)c3c2)c1=O (stereo not drawn) with GLXMAW (Soybean, Williams): 6.5

Reported GLXMAW herbicidal rating (GLXMAW (Soybean, Williams)) for entry `Cn1c(C(F)(F)F)cc(=O)n(-c2ccc3snc(-c4nccs4)c3c2)c1=O` is 6.8
